This collection of values is drawn from ChEMBL document CHEMBL4610019.

assay-text: Selectivity index, ratio of IC50 for human CRL1790 cells assessed as inhibition of cell growth to IC50 for human HCT116 cells assessed as inhibition of cell growth
Type: toxicity
condition-summary: CRL1790 cells versus HCT116 cells, read-out: Ratio IC50
The label depends only on selectivity ratio: class 1 if it is at least 100, class 0 if it is smaller.

Query :: Please indicate if the recorded selectivity ratio for O=C1/C(=C/c2ccc3c(c2)OCO3)CN(C(=O)C(Cl)Cl)C/C1=C\c1ccc2c(c1)OCO2 meets or exceeds 100.
Result :: class 0

Query :: Also check COc1ccc(/C=C2\CN(C(=O)C(Cl)Cl)C/C(=C\c3ccc(OC)c(OC)c3)C2=O)cc1OC
Result :: class 0

Query :: Also check O=C1/C(=C/c2ccc(O)cc2)CN(C(=O)C(Cl)Cl)C/C1=C\c1ccc(O)cc1
Result :: class 0

Query :: Also check COc1cc(/C=C2\CN(C(=O)C(Cl)Cl)C/C(=C\c3cc(OC)c(OC)c(OC)c3)C2=O)cc(OC)c1OC
Result :: class 1

Query :: Also check COc1ccc(/C=C2\CN(C(=O)C(Cl)Cl)C/C(=C\c3ccc(OC)cc3)C2=O)cc1
Result :: class 0

Query :: Also check O=C([O-])C(Cl)Cl.[Na+] [SODIUM DICHLOROACETATE]
Result :: class 0

Query :: Also check O=C1/C(=C/c2ccccc2)CNC/C1=C\c1ccccc1
Result :: class 0

Query :: Also check O=C1/C(=C/c2ccc(F)c(F)c2)CN(C(=O)C(Cl)Cl)C/C1=C\c1ccc(F)c(F)c1
Result :: class 1

Query :: Also check O=C1/C(=C/c2ccccc2)CN(C(=O)C(Cl)Cl)C/C1=C\c1ccccc1
Result :: class 0

Query :: Also check CC(=O)N1C/C(=C\c2ccccc2)C(=O)/C(=C/c2ccccc2)C1
Result :: class 0

Query :: Also check O=C1/C(=C/c2ccccc2F)CN(C(=O)C(Cl)Cl)C/C1=C\c1ccccc1F
Result :: class 0

Query :: Also check O=C1/C(=C/c2ccc([N+](=O)[O-])cc2)CN(C(=O)C(Cl)Cl)C/C1=C\c1ccc([N+](=O)[O-])cc1
Result :: class 1

Query :: Also check Cc1ccc(/C=C2\CN(C(=O)C(Cl)Cl)C/C(=C\c3ccc(C)cc3)C2=O)cc1
Result :: class 1

Query :: Also check O=C1/C(=C/c2ccc(F)cc2)CN(C(=O)C(Cl)Cl)C/C1=C\c1ccc(F)cc1
Result :: class 1

Query :: Also check CC(C)(C)C(=O)N1C/C(=C\c2ccc(OC(=O)C(Cl)Cl)cc2)C(=O)/C(=C/c2ccc(OC(=O)C(Cl)Cl)cc2)C1
Result :: class 0

Query :: Also check O=C1/C(=C/c2ccc(Cl)c(Cl)c2)CN(C(=O)C(Cl)Cl)C/C1=C\c1ccc(Cl)c(Cl)c1
Result :: class 1

Query :: Also check O=C1/C(=C/c2cccc(F)c2)CN(C(=O)C(Cl)Cl)C/C1=C\c1cccc(F)c1
Result :: class 1

Query :: Also check O=C1/C(=C/c2ccc(Cl)cc2)CN(C(=O)C(Cl)Cl)C/C1=C\c1ccc(Cl)cc1
Result :: class 1

Query :: Also check CN(C)c1ccc(/C=C2\CN(C(=O)C(Cl)Cl)C/C(=C\c3ccc(N(C)C)cc3)C2=O)cc1
Result :: class 0

Query :: Also check O=c1[nH]cc(F)c(=O)[nH]1 [FLUOROURACIL]
Result :: class 0

###

System: HCT-116
assay-text: Induction of mitochondrial membrane potential loss in human HCT116 cells at IC50
Type: functional, cell-based
The source made the active and inactive calls. The rule behind the calls is not given here.
Choose one outcome from this list and give only that: active, inactive

Query :: Please let me know the test result on file for O=C1/C(=C/c2ccccc2)CN(C(=O)C(Cl)Cl)C/C1=C\c1ccccc1 .
Result :: active

Query :: Also check CC(=O)N1C/C(=C\c2ccccc2)C(=O)/C(=C/c2ccccc2)C1
Result :: active

Query :: Also check O=c1[nH]cc(F)c(=O)[nH]1
Result :: active

Query :: Also check O=C1/C(=C/c2ccc([N+](=O)[O-])cc2)CN(C(=O)C(Cl)Cl)C/C1=C\c1ccc([N+](=O)[O-])cc1
Result :: active

Query :: Also check CN(C)c1ccc(/C=C2\CN(C(=O)C(Cl)Cl)C/C(=C\c3ccc(N(C)C)cc3)C2=O)cc1
Result :: inactive

###

Assignment: determine reported IC50 for the given compounds.
Test system: HCT-116
assay-text: Cytotoxicity against human HCT116 cells assessed as inhibition of cell growth
Format: functional, cell-based
Note: unit nM is implicit; provide only the numeric part.

Query :: Form entry - test system: HCT-116; read-out: IC50; compound: O=C1/C(=C/c2ccc(O)cc2)CN(C(=O)C(Cl)Cl)C/C1=C\c1ccc(O)cc1
Result :: 3850

Query :: Also check O=C1/C(=C/c2ccc(F)c(F)c2)CN(C(=O)C(Cl)Cl)C/C1=C\c1ccc(F)c(F)c1
Result :: 60

Query :: Also check O=C1/C(=C/c2ccccc2F)CN(C(=O)C(Cl)Cl)C/C1=C\c1ccccc1F
Result :: 210

Query :: Also check Cc1ccc(/C=C2\CN(C(=O)C(Cl)Cl)C/C(=C\c3ccc(C)cc3)C2=O)cc1
Result :: 30

Query :: Also check O=C1/C(=C/c2ccccc2)CNC/C1=C\c1ccccc1
Result :: 3500

Query :: Also check COc1cc(/C=C2\CN(C(=O)C(Cl)Cl)C/C(=C\c3cc(OC)c(OC)c(OC)c3)C2=O)cc(OC)c1OC
Result :: 40

Query :: Also check O=C1/C(=C/c2ccc(Cl)cc2)CN(C(=O)C(Cl)Cl)C/C1=C\c1ccc(Cl)cc1
Result :: 130

Query :: Also check COc1ccc(/C=C2\CN(C(=O)C(Cl)Cl)C/C(=C\c3ccc(OC)c(OC)c3)C2=O)cc1OC
Result :: 110

Query :: Also check O=C1/C(=C/c2cccc(F)c2)CN(C(=O)C(Cl)Cl)C/C1=C\c1cccc(F)c1
Result :: 110

Query :: Also check CC(C)(C)C(=O)N1C/C(=C\c2ccc(OC(=O)C(Cl)Cl)cc2)C(=O)/C(=C/c2ccc(OC(=O)C(Cl)Cl)cc2)C1
Result :: 230

Query :: Also check O=C([O-])C(Cl)Cl.[Na+] [SODIUM DICHLOROACETATE]
Result :: 14800

Query :: Also check O=C1/C(=C/c2ccc(F)cc2)CN(C(=O)C(Cl)Cl)C/C1=C\c1ccc(F)cc1
Result :: 50

Query :: Also check CN(C)c1ccc(/C=C2\CN(C(=O)C(Cl)Cl)C/C(=C\c3ccc(N(C)C)cc3)C2=O)cc1
Result :: 13300

Query :: Also check O=C1/C(=C/c2ccc([N+](=O)[O-])cc2)CN(C(=O)C(Cl)Cl)C/C1=C\c1ccc([N+](=O)[O-])cc1
Result :: 30

Query :: Also check CC(=O)N1C/C(=C\c2ccccc2)C(=O)/C(=C/c2ccccc2)C1
Result :: 280

Query :: Also check O=C1/C(=C/c2ccc(Cl)c(Cl)c2)CN(C(=O)C(Cl)Cl)C/C1=C\c1ccc(Cl)c(Cl)c1
Result :: 40

Query :: Also check O=C1/C(=C/c2ccccc2)CN(C(=O)C(Cl)Cl)C/C1=C\c1ccccc1
Result :: 230

Query :: Also check O=c1[nH]cc(F)c(=O)[nH]1 [FLUOROURACIL]
Result :: 4020

Query :: Also check O=C1/C(=C/c2ccc3c(c2)OCO3)CN(C(=O)C(Cl)Cl)C/C1=C\c1ccc2c(c1)OCO2
Result :: 320

Query :: Also check COc1ccc(/C=C2\CN(C(=O)C(Cl)Cl)C/C(=C\c3ccc(OC)cc3)C2=O)cc1
Result :: 270
